All values here come from ChEMBL document CHEMBL1201862.

System: MCF7
Experiment: NCI tumour cell line growth inhibition, 48 h
The source made the active and inactive calls. Cut-off read from the data, not from the text of the source: active = GI50 up to about 1.1 µM and inactive = higher. Square brackets hold non-standard residues; d marks the D form. Peptide text beside a SMILES is read from it. * marks the point of attachment. X26 = COC1=CC(=O)N(C(=O)[C@@H](O*)C(C)C)[C@H]1Cc1ccccc1; NMeV = CN[C@H](C(=O)O)C(C)C; Hexanoyl = CCCCCC(=O)*
Possible outcomes: y for active, n for inactive

CCN1C(=O)C(=C/C=C/C=C2/N(C)c3ccccc3C2(C)C)C(=O)N(CC)C1=S :: n
CCOC(=O)C1C(O)CC2c3ccccc3-c3ccccc3C21 (configuration not stated) :: n
O=S(=O)(O)c1cc(Cl)c(O)c2ncc(Cl)cc12 :: n
CCCCCC(=O)N[C@H](C(=O)N[C@H](C(=O)N(C)[C@H](C(=O)N1CCC[C@H]1C(=O)N1CCC[C@H]1C(=O)O[C@H](C(=O)N1C(=O)C=C(OC)[C@@H]1Cc1ccccc1)C(C)C)C(C)C)C(C)C)C(C)C (Hexanoyl-VV[NMeV]PP-X26) :: n
COC1=CC(=O)c2c(O)c3c(c(O)c2C1=O)C[C@](C)(O)C[C@@H]3O :: n
N#Cc1c(N2CCCC2)nsc1NCc1ccccc1 :: n
O=C1N/C(=N/N=C/C(O)C(O)C(O)C(O)CO)N/C1=C\c1ccco1 (configuration not stated) :: n
COc1ccc(C2c3cc4c(cc3OC(Nc3ccccc3)C2C)OCO4)cc1 (configuration not stated) :: n
Nc1ccccc1/N=N/c1c(S(=O)(=O)O)cc2cc(S(=O)(=O)O)cc(O)c2c1O :: n
COc1cc2c(cc1OC)C1C(O)C(OC)C=C3CC[N+](C)(C2)C31 (configuration not stated) :: n
CC(Oc1ccccc1Cl)C(=O)NN1C(=O)CC(=O)N(c2ccc(Cl)cc2)C1=S (configuration not stated) :: n
CC1OC2OC3C(OCC(O)C3O)OC(=O)[C@]34CCC(C)(C)CC3C3=CCC5[C@@]6(C)C[C@H](O)[C@H](OC7OC(CO)C(O)C(O)C7OC7OCC(OC(=O)CC(C)(O)CC(=O)OC1C(OC1OC(CO)C(O)C(O)C1O)C2O)C(O)C7O)[C@@](C)(CO)C6CC[C@@]5(C)[C@]3(C)CC4 (some centres not stated) :: n
N#CC12C(=O)N3C(=NC(c4ccccc4)NC3c3ccccc3)C1(C#N)C(c1ccccc1)NC1=C2CCCC1 (configuration not stated) :: n
O=c1ccc2c(Cl)cccc2o1 :: n
COc1cc(C2c3[nH]c4ccccc4c3[C@@H](Nc3ccc(C#N)cc3)[C@H]3COC(=O)N23)cc(OC)c1O (some centres not stated) :: y
COC(=O)C1=C(C(=O)OC)c2cc(OC)ccc2C(C(=S)N(C)C)S1 (configuration not stated) :: n
C=C1CC(C)(COc2cc(=O)oc3ccccc23)OC1=O (configuration not stated) :: n

* * *

Test system: SK-MEL-28
Assay: NCI tumour cell line growth inhibition, 48 h
Activity calls are given as the source filed them. Rule as the data show it: active = GI50 up to about 1.1 µM and inactive = higher.
Measured Attribute: GI50

CCOC(=O)C1C(O)CC2c3ccccc3-c3ccccc3C21 (centres undefined) :: > 100 µM (inactive)
CC(=O)OCC1OC(OC2CC3C(C)(C)C(O)CC[C@]3(C)C3CCC45CC4(CCC5[C@@H](C)CC(O)C(O)C(C)(C)O)[C@]23C)C(O)C(O)C1O (some centres undefined) :: > 10 µM (inactive)
N#Cc1c(-c2ccc(Cl)cc2)c2c(n(C3OC(CO)C(O)C(O)C3O)c1=S)CCC2 (centres undefined) :: 17.8 µM (inactive)
Cc1nnc2n1N=C(c1cc(F)c(Cl)cc1Cl)/C(=C/c1ccc3c(c1)OCO3)S2 :: > 100 µM (inactive)
COc1cc(COC(=O)N[C@H](C(=O)O)C(C)(C)C)c([N+](=O)[O-])cc1OC :: > 100 µM (inactive)
CC(C)(Oc1ccc2c(=O)cc(-c3ccccc3)oc2c1)C(=O)Nc1c(Cl)cccc1Cl :: > 100 µM (inactive)
CCN(CC)CCN(/C(=N/c1ccccc1)N1CCCCC1)c1ccccc1 :: 16.2 µM (inactive)
CC1=C(C(=O)Nc2ccccc2)C(c2cccc3ccccc23)C(C(=O)Nc2ccccc2)=C(C)N1 :: 18 µM (inactive)
C=CN1CCN(c2ccccc2)P1(=O)Oc1ccccc1 (centres undefined) :: > 100 µM (inactive)
c1ccc(-c2[nH]c(-c3ccccc3)c(-c3cnccn3)c2-c2cnccn2)cc1 :: > 100 µM (inactive)
c1ccc(CCCCNCc2cc(CNCCCCc3ccccc3)cc(CNCCCCc3ccccc3)c2)cc1 :: 0.948 µM (active)
O=C(CC(=O)N1N=C(n2ccc3ccccc32)CC1c1ccccc1)Nc1ccccc1Cl (centres undefined) :: > 100 µM (inactive)
CN(CCNC(=O)c1nn(C)c2c1Cc1ccccc1-2)CCNC(=O)c1nn(C)c2c1Cc1ccccc1-2 :: 16.1 µM (inactive)
COC(=O)C(=O)C(C(=O)C1=NS(=O)(=O)c2cc(S(N)(=O)=O)c(Cl)cc2N1)c1nc2ccc(C(=O)c3ccccc3)cc2nc1O (centres undefined) :: > 100 µM (inactive)
CC(C)(C)C1(O)C=C(O)C(=O)N1NC(=O)c1ccccc1Nc1ccccc1 (centres undefined) :: 50.2 µM (inactive)
COC(=O)/C(Cl)=C1/CC1COCc1ccccc1 (centres undefined) :: 21.8 µM (inactive)
N=C(N)NS(=O)(=O)c1ccc(Nc2c3ccccc3nc3c(C(=O)Nc4ccc(S(N)(=O)=O)cc4)ccc(Cl)c23)cc1 :: > 100 µM (inactive)
O=[N+]([O-])c1cc2no[n+]([O-])c2cc1N1CCCCC1 :: 7.28 µM (inactive)
N/C(=N\Nc1ccc(C(=O)O)cc1)c1cnccn1 :: > 100 µM (inactive)
